system: Escherichia coli; test: Antimicrobial activity against Escherichia coli incubated at 37 degC for 24 hrs; format: functional, organism-based
assay.endpoint: EC50

Measured EC50 of `Oc1ccc(-c2cnco2)cc1` : > 100 µM

Measured EC50 of `COc1ccc(-c2cnco2)cc1` : > 100 µM

---

Consider the following compounds; for each one, report its EC50.
biological target: UniProtKB Q95XG9; assay: Inhibition of Caenorhabditis elegans DAO incubated for 10 mins
Sequence (Q95XG9 whole entry): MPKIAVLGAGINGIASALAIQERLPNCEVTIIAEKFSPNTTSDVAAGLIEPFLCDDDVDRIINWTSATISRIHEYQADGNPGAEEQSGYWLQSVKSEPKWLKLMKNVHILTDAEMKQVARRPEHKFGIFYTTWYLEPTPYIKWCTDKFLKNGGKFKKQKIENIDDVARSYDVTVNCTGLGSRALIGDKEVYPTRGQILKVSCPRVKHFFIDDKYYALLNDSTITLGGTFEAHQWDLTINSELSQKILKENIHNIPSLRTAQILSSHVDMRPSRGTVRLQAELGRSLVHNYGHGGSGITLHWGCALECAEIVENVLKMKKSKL

Measured EC50 of `COc1ccc(-c2cnco2)cc1` : > 100 µM

Measured EC50 of `Oc1ccc(-c2cnco2)cc1` : > 100 µM

---

Consider the following compounds; for each one, report its MIC.
test system: Caenorhabditis elegans; test: Growth inhibition of adult Caenorhabditis elegans measured on day 3 by microscopy; assay type: functional; settings: 72 h
Please state the figure in µM; there is no need to write the unit.

Measured MIC of `COc1ccc(-c2cncs2)cc1` : 50

Measured MIC of `CN(C)c1ccc(-c2cnco2)cc1` : 50
